System name: T1, IL-18 receptor (IL-18Rαβ) on cells (UniProt Q13478 19-541; O95256 20-599, limits assumed)
T1 sequence (looked up) 1: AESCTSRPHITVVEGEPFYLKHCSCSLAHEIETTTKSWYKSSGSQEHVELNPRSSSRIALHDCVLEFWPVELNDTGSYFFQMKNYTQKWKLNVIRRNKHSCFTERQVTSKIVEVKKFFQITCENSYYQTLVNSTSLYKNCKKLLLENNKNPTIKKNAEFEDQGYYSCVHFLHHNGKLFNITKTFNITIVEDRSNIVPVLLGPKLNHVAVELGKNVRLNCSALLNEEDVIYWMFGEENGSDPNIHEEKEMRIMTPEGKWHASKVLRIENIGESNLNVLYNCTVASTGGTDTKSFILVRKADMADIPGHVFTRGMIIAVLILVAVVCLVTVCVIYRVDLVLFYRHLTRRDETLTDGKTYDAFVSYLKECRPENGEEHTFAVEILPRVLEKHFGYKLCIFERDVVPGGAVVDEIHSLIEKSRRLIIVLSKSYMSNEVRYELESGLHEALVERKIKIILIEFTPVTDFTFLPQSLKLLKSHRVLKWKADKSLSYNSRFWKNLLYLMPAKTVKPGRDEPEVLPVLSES
T1 sequence (looked up) 2: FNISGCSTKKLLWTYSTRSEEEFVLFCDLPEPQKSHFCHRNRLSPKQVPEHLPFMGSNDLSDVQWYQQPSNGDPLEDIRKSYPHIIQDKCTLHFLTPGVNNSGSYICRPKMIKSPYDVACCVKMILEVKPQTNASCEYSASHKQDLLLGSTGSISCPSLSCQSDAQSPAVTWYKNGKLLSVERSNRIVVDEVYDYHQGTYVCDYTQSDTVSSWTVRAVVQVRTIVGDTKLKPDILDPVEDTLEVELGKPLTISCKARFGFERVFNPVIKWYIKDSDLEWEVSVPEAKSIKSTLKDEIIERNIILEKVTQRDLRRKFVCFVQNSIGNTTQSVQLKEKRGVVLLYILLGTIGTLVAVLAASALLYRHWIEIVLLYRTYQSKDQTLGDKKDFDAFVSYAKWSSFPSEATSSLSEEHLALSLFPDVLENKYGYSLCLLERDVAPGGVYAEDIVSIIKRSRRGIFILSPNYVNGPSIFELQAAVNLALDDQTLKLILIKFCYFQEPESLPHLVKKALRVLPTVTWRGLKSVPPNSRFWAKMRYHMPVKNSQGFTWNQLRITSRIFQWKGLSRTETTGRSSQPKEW
Assay explanation: cell-based or functional assay

{"Binder": "C167 (ligand) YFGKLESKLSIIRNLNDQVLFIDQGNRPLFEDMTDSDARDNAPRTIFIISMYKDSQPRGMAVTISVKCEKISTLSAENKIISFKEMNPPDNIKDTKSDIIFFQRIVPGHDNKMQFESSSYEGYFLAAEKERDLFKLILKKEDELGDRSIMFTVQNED", "Unit": "nM", "EC50 (IFNγ stimulation, NK92)": 0.103}
{"Binder": "C143 (ligand) YFGKLESKLSIIRNLNDQVLFIDQGNRPLFEDMTDSDARDNAPRTIFIISMYADSQPRGMAVTISVKCEKISTLSAENKIISFKEMNPPDNIKDTKSDIIFFQRSVPGHDNKMQFESSSYEGYFLAAEKERDLFKLILKKEDELGDRSIMFTVQNED", "Unit": "nM", "EC50 (IFNγ stimulation, NK92)": 0.138}
